Test system: Plasmodium falciparum
Test: Inhibition of Plasmodium falciparum W2
Conditions: read-out: IC50
Measure: pIC50
For clarity, pIC50 is expressed as the negative log10 of concentration in mol/L.

Would you please look over these solved cases?
* COc1ccc(/C=C/C(=O)c2cc3ccccc3nc2Cl)cc1OC | 6.29
* COc1ccc(/C=C/C(=O)c2ccc(F)c(F)c2)c(OC)c1 | 5.68
* COc1ccc(/C=C/C(=O)c2cccnc2)cc1 | 5.00

# input Output pIC50 of COc1ccc(/C=C/C(=O)c2cc3ccccc3nc2Cl)c(OC)c1
# output 6.00

# input Item COc1ccc(/C=C/C(=O)c2cccnc2)c(OC)c1OC : provide pIC50
# output 5.41

# input Tell us which pIC50 value is on record for O=C(/C=C/c1ccc(Cl)c(Cl)c1)c1ccnc2ccccc12
# output 6.10

###

The reader will find reported log10(IC50) values listed item by item below.
System: Plasmodium falciparum
Experiment: Inhibition of Plasmodium falciparum W2
Conditions: read-out: IC50
Transform log10 | Measure IC50 | Unit nM

• COc1ccc(/C=C/C(=O)c2cccc3ccccc23)cc1OC = 3.70
• O=C(/C=C/c1cccnc1)c1cc2ccccc2nc1Cl = 2.85
• COc1ccc(/C=C/C(=O)c2cccc3ccccc23)cc1 = 4.00
• COc1ccc(OC)c(/C=C/C(=O)c2cccc3ccccc23)c1 = 3.45

# input State, in one line, measured log10(IC50) of COc1ccc(/C=C/C(=O)c2ccc(Cl)cc2Cl)c(OC)c1OC
# output 2.56

###

# Lookup of reported IC50 keyed by entry
Tested on: Plasmodium falciparum
Assay: Inhibition of Plasmodium falciparum W2
Settings: read-out: IC50
Report only the number, with the unit nM understood.

• COc1ccc(/C=C/C(=O)c2cccc(Cl)c2Cl)c(OC)c1 = 1380

# input Determine from records and report IC50 for COc1ccc(/C=C/C(=O)c2cccc3ccccc23)c(OC)c1
# output 4600

# input Annotate the compound O=C(/C=C/c1ccc(F)cc1F)c1cc2ccccc2nc1Cl with its measured IC50.
# output 1000

# input Please report the measured IC50 for COc1ccc(/C=C/C(=O)c2ccccn2)c(OC)c1OC
# output 2300

# input Answer with the recorded IC50 for the compound listed here: COc1ccc(/C=C/C(=O)c2ccccn2)cc1
# output 12000

# input Please report IC50 for the following compound: COc1cccc(OC)c1/C=C/C(=O)c1cccc2ccccc12
# output 3100

# input Give recorded IC50. COc1ccc(/C=C/C(=O)c2ccc(C(F)(F)F)cc2)c(OC)c1
# output 750

# input Specify reported IC50 for the compound shown: COc1cc(/C=C/C(=O)c2ccc3ccccc3c2)cc(OC)c1OC
# output 6000

# input For the compound COc1ccc(/C=C/C(=O)c2ccc(Cl)cc2Cl)c(OC)c1 , report IC50.
# output 900

# input Indicate the recorded IC50 value for this compound: COc1cccc(OC)c1/C=C/C(=O)c1ccc(Cl)cc1
# output 770

# input Report measured IC50; entry is COc1ccc(/C=C/C(=O)c2ccccn2)c(OC)c1
# output 1700

# input Report IC50, nothing else, for this compound: COc1ccc(OC)c(/C=C/C(=O)c2ccccn2)c1
# output 1400

###

System: Plasmodium falciparum
Assay: Inhibition of Plasmodium falciparum W2
Settings: read-out: IC50
Measure: pIC50
// pIC50 is dimensionless: -log10 of concentration (M)

- O=C(/C=C/c1ccc(-n2ccnc2)cc1)c1ccc(Cl)cc1Cl: 5.93

# input Entry COc1ccc(OC)c(/C=C/C(=O)c2cccc(Cl)c2Cl)c1 needs its pIC50 filled in; supply it.
# output 6.04

# input Report pIC50, nothing else, for this compound: COc1ccc(/C=C/C(=O)c2cccnc2)c(OC)c1
# output 5.57

# input Read the entry COc1cc(/C=C/C(=O)c2cccc3ccccc23)cc(OC)c1OC and write its reported pIC50.
# output 5.32

# input Respond only with pIC50 recorded for O=C(/C=C/c1cc(Cl)ccc1Cl)c1ccnc2ccccc12
# output 6.64

# input Using the record for COc1cc(/C=C/C(=O)c2cccc3ccccc23)cc(OC)c1 , state its measured pIC50.
# output 5.37

# input Hello, please tell me recorded pIC50 for this one: COc1ccc(OC)c(/C=C/C(=O)c2ccc(Cl)cc2Cl)c1
# output 6.12
